target: Nav1.7 (or SCN9A) channel; HEK cells stably transfected with hSCN9A (Homo sapiens); construct: expressed in transfected cells; assay: Nav1.7 block, PatchXpress 7000 automated whole-cell voltage clamp, estimated IC50 (EIC50); assay type: cell-based; settings: estimated IC50; hSCN9A HEK cells, PatchXpress platform; Examples 283-814
Sequence (Q15858 whole entry): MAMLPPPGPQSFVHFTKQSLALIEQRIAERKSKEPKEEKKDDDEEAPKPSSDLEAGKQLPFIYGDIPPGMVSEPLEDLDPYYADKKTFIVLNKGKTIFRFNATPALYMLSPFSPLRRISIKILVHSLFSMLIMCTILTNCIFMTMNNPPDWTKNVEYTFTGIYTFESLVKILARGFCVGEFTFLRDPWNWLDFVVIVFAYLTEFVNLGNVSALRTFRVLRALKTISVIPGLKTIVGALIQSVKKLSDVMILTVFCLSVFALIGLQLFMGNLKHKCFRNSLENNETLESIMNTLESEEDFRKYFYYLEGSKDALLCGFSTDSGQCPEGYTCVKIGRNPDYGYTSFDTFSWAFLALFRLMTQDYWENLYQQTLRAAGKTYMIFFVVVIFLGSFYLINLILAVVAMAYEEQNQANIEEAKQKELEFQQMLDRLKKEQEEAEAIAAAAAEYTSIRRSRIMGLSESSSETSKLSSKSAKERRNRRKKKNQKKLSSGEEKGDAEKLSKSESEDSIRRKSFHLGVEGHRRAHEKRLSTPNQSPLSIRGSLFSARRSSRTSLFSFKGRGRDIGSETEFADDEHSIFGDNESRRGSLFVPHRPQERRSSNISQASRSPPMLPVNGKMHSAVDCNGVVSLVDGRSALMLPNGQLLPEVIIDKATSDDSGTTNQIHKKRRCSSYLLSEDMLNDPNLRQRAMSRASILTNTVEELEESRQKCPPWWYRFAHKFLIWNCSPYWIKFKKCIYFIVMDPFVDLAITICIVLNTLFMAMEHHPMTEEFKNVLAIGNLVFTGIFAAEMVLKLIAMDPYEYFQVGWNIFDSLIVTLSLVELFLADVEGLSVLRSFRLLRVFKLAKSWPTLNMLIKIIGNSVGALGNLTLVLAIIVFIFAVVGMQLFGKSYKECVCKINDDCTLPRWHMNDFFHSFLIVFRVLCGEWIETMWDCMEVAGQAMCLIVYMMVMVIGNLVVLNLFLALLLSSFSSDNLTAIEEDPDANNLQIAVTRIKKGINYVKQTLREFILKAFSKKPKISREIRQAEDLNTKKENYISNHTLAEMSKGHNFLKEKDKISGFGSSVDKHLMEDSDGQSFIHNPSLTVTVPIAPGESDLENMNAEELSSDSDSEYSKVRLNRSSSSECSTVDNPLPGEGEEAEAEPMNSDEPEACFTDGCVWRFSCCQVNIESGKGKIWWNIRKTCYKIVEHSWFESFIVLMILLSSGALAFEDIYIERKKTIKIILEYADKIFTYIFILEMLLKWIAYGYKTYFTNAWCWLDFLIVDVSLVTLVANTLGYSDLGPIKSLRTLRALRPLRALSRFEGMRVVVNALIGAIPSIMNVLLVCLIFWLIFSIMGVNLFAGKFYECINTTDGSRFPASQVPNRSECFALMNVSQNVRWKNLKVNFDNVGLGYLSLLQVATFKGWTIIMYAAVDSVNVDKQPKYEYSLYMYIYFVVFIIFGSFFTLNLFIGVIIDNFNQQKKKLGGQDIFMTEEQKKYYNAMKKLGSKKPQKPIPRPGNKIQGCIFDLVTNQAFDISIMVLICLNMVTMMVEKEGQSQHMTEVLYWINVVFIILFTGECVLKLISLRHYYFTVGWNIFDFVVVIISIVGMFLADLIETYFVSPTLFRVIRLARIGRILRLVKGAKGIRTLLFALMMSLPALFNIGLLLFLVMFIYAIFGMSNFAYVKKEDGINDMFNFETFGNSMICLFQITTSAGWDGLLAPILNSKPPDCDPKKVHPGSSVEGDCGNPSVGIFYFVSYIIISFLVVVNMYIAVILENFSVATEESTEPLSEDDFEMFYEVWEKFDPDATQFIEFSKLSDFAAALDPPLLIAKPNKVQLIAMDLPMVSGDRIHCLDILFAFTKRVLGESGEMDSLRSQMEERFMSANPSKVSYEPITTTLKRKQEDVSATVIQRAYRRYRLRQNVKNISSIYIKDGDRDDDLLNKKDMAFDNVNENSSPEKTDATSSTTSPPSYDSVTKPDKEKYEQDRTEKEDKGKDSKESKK
OBSERVABLE: IC50 (µM)
Numbers only here, please. The scale is µM.

Answered cases to consult:
| SMILES TEXT | MEASURED TARGET | OBSERVABLE | ENDPOINT RESULT |
| --- | --- | --- | --- |
| Cn1nccc1-c1cc(F)c(F)cc1Oc1ccc(S(=O)(=O)Nc2nccs2)cc1C#N | Nav1.7 (or SCN9A) channel; HEK cells stably transfected with hSCN9A (Homo sapiens) | IC50 | 0.16 |
| O=S(=O)(Nc1nncs1)c1cc(Cl)c(Oc2ccc(Cl)cc2-c2ccnn2CCO)cc1F | Nav1.7 (or SCN9A) channel; HEK cells stably transfected with hSCN9A (Homo sapiens) | IC50 | 0.17 |

May I ask what IC50 has been recorded for `CC(C)(C)n1ccc(Cc2cccc(Oc3ccc(S(=O)(=O)Nc4cscn4)cc3C#N)c2)n1` ?
8.7

For `Nc1cc(-c2cc(F)ccc2Oc2cc(F)c(S(=O)(=O)Nc3ncns3)cc2Cl)ccn1` then?
0.0027

Next record, please: `N#Cc1cc(S(=O)(=O)Nc2ncns2)cc(F)c1Oc1ccc(Cl)cc1-c1cn[nH]c1`
0.19

Would you kindly repeat that for `CC(C)c1cc(-c2cc(C(F)(F)F)nn2C)ccc1Oc1ccc(S(=O)(=O)Nc2nccs2)cc1C#N` ?
0.18

Quick one: `N#Cc1cc(S(=O)(=O)Nc2ncns2)ccc1Oc1ccc(Cl)cc1-c1cccc(CN)c1`
0.0084

Would you kindly repeat that for `CN1CCC(c2cccc(Oc3ccc(S(=O)(=O)Nc4ccc(F)cn4)cc3C#N)c2)CC1` ?
7.3

---

Form field: IC50 (one value per entry).
molecular target: Nav1.7 (or SCN9A) channel; HEK cells stably transfected with hSCN9A (Homo sapiens); construct: expressed in transfected cells; test: Nav1.7 block, PatchXpress 7000 automated whole-cell voltage clamp, estimated IC50 (EIC50); format: cell-based; conditions: PatchXpress platform; hSCN9A HEK cells held at V1/2 of inactivation; estimated IC50
Reply numerically in µM, unit not repeated.

In the examples that follow, each entry is paired with its recorded IC50.
| SMILES TEXT | MEASURED TARGET | OBSERVABLE | ENDPOINT RESULT |
| --- | --- | --- | --- |
| O=S(=O)(Nc1ncns1)c1cc(F)c(Oc2ccccc2-c2ccccc2)c(F)c1 | Nav1.7 (or SCN9A) channel; HEK cells stably transfected with hSCN9A (Homo sapiens) | IC50 | 2.38 |
| Cc1cc(S(=O)(=O)Nc2ncns2)ccc1Oc1ccccc1-c1ccccc1 | Nav1.7 (or SCN9A) channel; HEK cells stably transfected with hSCN9A (Homo sapiens) | IC50 | 0.22 |
| N#Cc1cc(S(=O)(=O)Nc2ncns2)ccc1Oc1cc(F)ccc1Oc1ccccc1 | Nav1.7 (or SCN9A) channel; HEK cells stably transfected with hSCN9A (Homo sapiens) | IC50 | 1.11 |

Need IC50 of `N#Cc1cc(S(=O)(=O)Nc2ncns2)ccc1Oc1ccc(CN2CCC2)cc1F` , thanks.
25.7

Same thing, different compound: `O=S(=O)(Nc1nccs1)c1ccc(Oc2ccn(Cc3ccc(Cl)cc3)n2)c(F)c1`
1.87

Item: `N#Cc1cc(S(=O)(=O)Nc2ncns2)ccc1Oc1ccccc1-c1cc(F)ccc1F`
1.29

Try this compound too: `COc1ccc(-c2ccccc2Oc2ccc(S(=O)(=O)Nc3ncns3)cc2C#N)cc1`
0.33

Moving on to `O=S(=O)(Nc1nccs1)c1ccc(Oc2ccccc2-c2ccccc2)cc1`
0.55

Try this compound too: `COc1ccc(-c2cc(F)ccc2Oc2ccc(S(=O)(=O)Nc3nccs3)cc2C#N)cn1`
0.05

What do you have for `Cc1cccc(-c2ccc(OC(F)(F)F)cc2)c1Oc1ccc(S(=O)(=O)Nc2ncns2)cc1C#N` ?
5.74

Then this compound: `Cc1c(Cl)ccc(Oc2ccc(S(=O)(=O)Nc3nccs3)cc2C#N)c1-c1nnco1`
1.13

Please do the same for `N#Cc1cc(S(=O)(=O)Nc2nccs2)ccc1Oc1ccc(F)cc1-c1ccc(CO)cc1` as well.
0.42

Would you mind doing `CCOC(=O)Cn1nc(Cc2ccc(Cl)cc2)cc1Oc1ccc(S(=O)(=O)Nc2ncns2)cc1C#N` as well?
1.81

One more compound: `O=S(=O)(Nc1nccs1)c1ccc(Oc2ncncc2-c2ccccc2)c(F)c1`
13.9

And what about the compound `O=S(=O)(Nc1nccs1)c1ccc(Oc2cnn(Cc3ccc(Cl)cc3)c2)c(F)c1` ?
0.76
